assayed-system: T1, Nrd1 CID L20D (S. cerevisiae, UniProt P53617 1-153, L20D)
T1 construct: the construct for anisotropy is made as described previously (Kubicek et al, 2012); also called CID(L20D)-His6; source: recombinant, produced and purified as described previously (Kubicek et al, 2012); plasmid with T7 promoter
T1 sequence (looked up): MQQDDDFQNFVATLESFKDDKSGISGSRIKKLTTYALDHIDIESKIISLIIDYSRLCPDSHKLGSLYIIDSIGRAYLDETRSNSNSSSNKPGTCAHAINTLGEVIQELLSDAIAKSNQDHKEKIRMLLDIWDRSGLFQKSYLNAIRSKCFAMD
run-description: fluorescence polarisation; fluorescence anisotropy, equilibrium binding of Nrd1 CID variants to FAM-labelled NIM peptides; 10°C, 50 mM Na2HPO4, 100 mM NaCl, pH 8; 1:1 model with non-specific binding (DynaFit)
experimental-parameters: both partners purified
Ends that are not written are not given here. FAM = 5,6-carboxyfluorescein
readout-name: pKd
// returns pKd (minus log10 of molar concentration), number only

Exercise: Returns the measured pKd for the input binder. Input: {FAM}-DDDEDDYTPSIS (peptide, UniProt Q00416 2052-2063, looked up, Sen1, S. cerevisiae, fragment harbouring aa 2,052-2,063; source: synthetic peptide) [Sen1 NIM peptide (Sen1 aa 2,052-2,063)]
Solution: 4.77
